Test system: HLA-A*1101 (human)
Assay method text: competition with 125I-labeled standard peptide for purified HLA, gel filtration
Readout: relative binding ratio (IC50 of standard peptide / IC50 of test peptide)

{"columns": ["Binder", "Assay value"],
 "data": [
  ["NSNASAFLK (modifications not checked) [HPV16 E1 peptide … (position 386, 9 amino acids)]", 0.011],
  ["NINAGTDSR (modifications not checked) [HPV16 E1 peptide … (position 567, 9 amino acids)]", 0.0002],
  ["MMIEPPKLR (modifications not checked) [HPV16 E1 peptide … (position 305, 9 amino acids)]", 0.0086],
  ["SMSQWIKYR (modifications not checked) [HPV16 E1 peptide … (position 421, 9 amino acids)]", 0.028],
  ["SVICFVNSK (modifications not checked) [HPV16 E1 peptide … (position 497, 9 amino acids)]", 0.0002],
  ["SLFGMSLMK (modifications not checked) [HPV16 E1 peptide … (position 484, 9 amino acids)]", 7.1],
  ["TAQEAKQHR (modifications not checked) [HPV16 E1 peptide … (position 72, 9 amino acids)]", 0.0025],
  ["QMSMSQWIK (modifications not checked) [HPV16 E1 peptide … (position 419, 9 amino acids)]", 0.026],
  ["NAKAAMLAK (modifications not checked) [HPV16 E1 peptide … (position 202, 9 amino acids)]", 0.0031],
  ["NVLKTSNAK (modifications not checked) [HPV16 E1 peptide … (position 196, 9 amino acids)]", 0.0015],
  ["LVRPFKSNK (modifications not checked) [HPV16 E1 peptide … (position 222, 9 amino acids)]", 1.8],
  ["MSFLTALKR (modifications not checked) [HPV16 E1 peptide … (position 454, 9 amino acids)]", 0.098],
  ["RLKAICIEK (modifications not checked) [HPV16 E1 peptide … (position 109, 9 amino acids)]", 0.051],
  ["LVSMDVKHR (modifications not checked) [HPV16 E1 peptide … (position 544, 9 amino acids)]", 0.0089]
]}
